Experiment: Pharmacokinetics of TET in blood after a single i.v. administration in normal and LPS-induced ALI mice
Details: male, BALB/c, mouse, in vivo, iv, 5 mg/kg, LPS-treated mice; 5 mg/kg i.v.; blood
Assay readout: AUC(0-inf) (ng·h/mL)
Answers are plain numbers, in ng·h/mL.

Ask: AUC(0-inf) lookup needed for COc1ccc2cc1Oc1ccc(cc1)C[C@H]1c3cc(c(OC)cc3CCN1C)Oc1c(OC)c(OC)cc3c1[C@H](C2)N(C)CC3 , thanks.
Result: 65700

###

Target: MDR1 (P-gp) (Homo sapiens, UniProt P08183)
Sequence (P08183 whole entry): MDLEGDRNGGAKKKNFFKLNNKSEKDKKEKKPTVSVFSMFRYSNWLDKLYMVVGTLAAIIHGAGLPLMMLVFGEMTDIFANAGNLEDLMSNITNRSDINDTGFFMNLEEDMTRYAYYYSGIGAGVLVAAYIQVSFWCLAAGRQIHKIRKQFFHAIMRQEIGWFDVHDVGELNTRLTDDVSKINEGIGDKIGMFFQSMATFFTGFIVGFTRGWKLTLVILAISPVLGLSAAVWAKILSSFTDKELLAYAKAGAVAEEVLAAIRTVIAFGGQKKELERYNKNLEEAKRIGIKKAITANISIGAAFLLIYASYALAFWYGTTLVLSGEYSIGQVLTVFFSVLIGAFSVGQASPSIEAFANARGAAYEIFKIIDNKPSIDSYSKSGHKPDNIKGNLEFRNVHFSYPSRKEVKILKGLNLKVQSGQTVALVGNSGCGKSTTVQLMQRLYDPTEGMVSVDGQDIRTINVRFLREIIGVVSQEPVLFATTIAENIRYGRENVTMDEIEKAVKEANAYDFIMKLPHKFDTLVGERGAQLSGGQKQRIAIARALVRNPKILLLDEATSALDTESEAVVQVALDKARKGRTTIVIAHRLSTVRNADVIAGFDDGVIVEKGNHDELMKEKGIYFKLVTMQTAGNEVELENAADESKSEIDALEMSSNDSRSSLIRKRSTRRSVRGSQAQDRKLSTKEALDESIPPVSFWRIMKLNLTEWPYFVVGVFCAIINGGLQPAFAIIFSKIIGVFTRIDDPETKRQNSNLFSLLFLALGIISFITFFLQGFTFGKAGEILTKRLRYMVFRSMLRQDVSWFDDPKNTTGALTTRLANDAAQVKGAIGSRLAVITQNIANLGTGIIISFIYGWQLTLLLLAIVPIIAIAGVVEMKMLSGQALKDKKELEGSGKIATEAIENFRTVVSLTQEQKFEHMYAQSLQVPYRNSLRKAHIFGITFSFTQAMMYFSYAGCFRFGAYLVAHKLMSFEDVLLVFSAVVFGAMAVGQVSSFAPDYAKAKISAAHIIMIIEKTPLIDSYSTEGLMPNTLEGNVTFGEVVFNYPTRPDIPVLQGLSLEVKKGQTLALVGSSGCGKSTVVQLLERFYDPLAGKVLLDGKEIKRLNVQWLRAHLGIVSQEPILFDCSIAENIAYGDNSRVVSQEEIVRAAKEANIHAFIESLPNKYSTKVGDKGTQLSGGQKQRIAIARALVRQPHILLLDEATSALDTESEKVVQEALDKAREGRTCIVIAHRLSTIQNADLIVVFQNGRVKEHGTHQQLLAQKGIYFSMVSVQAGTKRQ
Assay: Bidirectional transport in MDR1-transfected LLC-PK1 cells
Conditions: human, LLC-PK1
Procedure: MDR1 expressing LLC-PK1 cells or MOCK LLC-PK1 cells were utilized to identify whether P-gp is involved in the efflux transport across the membrane barrier. Cells were cultured as described above. […] On the day of the experiment, transepithelial electrical resistance (TEER) was measured to assess monolayer integrity. […]
Assay readout: efflux ratio at 2 h
Numbers only.

C[C@H]1O[C@@H](O[C@H]2[C@@H](O)C[C@H](O[C@H]3[C@@H](O)C[C@H](O[C@H]4CC[C@@]5(C)[C@H](CC[C@@H]6[C@@H]5C[C@@H](O)[C@]5(C)[C@@H](C7=CC(=O)OC7)CC[C@]65O)C4)O[C@@H]3C)O[C@@H]2C)C[C@H](O)[C@@H]1O    11.5

# batch size: 2; output efflux ratio at 2 h per entry
1. COc1ccc2cc1Oc1ccc(cc1)C[C@H]1c3cc(c(OC)cc3CCN1C)Oc1c(OC)c(OC)cc3c1[C@H](C2)N(C)CC3
2. COCCc1ccc(OCC(O)CNC(C)C)cc1 (stereo not drawn)

Result:
1. 32.5
2. 1

Recorded values, source paper PMC9655037.
